procedure_details: chemical genetic growth profiling, strain panel (AID 1159580);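 also: tested at 20 µM; growth read once vehicle control cultures reached saturation at 30 °C; 1 = growth at the plate median or of vehicle wells; lower values mean less growth of the strain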
cond: S. cerevisiae deletion strains, growth OD, locus YNL298W, strain CLA4, active compounds read low
Among all 5,500 compounds or so, about 2,000 (36%) were called active. Roughly 18% stayed inconclusive and do not appear here. Some of the results follow.
# normalized growth per record follows

Exercise: Given the compound Nc1ccc(C(=O)NCC(=O)O)cc1 , what is its reported normalized growth?
Solution: 1.03 (inactive)

Exercise: Quick one: O=C(O)CCCCC1CCSS1 (stereo not drawn)
Solution: 0.928 (inactive)

Exercise: Quick one: CC(=O)NCCCCCC(=O)O
Solution: 0.986 (inactive)

* * *

procedure_details: chemical genetic growth profiling, strain panel (AID 1159580);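 also: tested at 20 µM; growth read once vehicle control cultures reached saturation at 30 °C; 1 = growth at the plate median or of vehicle wells; lower values mean less growth of the strain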
cond: S. cerevisiae deletion strains, growth OD, locus YOR316C, strain cot1
About 2,000 (36%) of roughly 5,500 compounds were called active. Roughly 18% stayed inconclusive and do not appear here. Rule as the data show it: active = normalized growth mostly below about 0.91 (no sharp cut-off); inconclusive = no clear call, values can overlap the other calls; inactive = mostly above about 0.92. Some of the results follow.
# valid calls are 1 (active), 0 (inactive); nothing else

# compound, assigned_class
data = [
    ("C/C=C/c1ccc2c(c1)OCO2", 0),
    ("O=C(O)CCC(=O)C(=O)O", 0),
]

Exercise: Hi, do you know how COC(=O)[C@]1(C)CC[C@]2(C)CC[C@]3(C)C4=CCc5c(cc(O)c(O)c5C)[C@]4(C)CC[C@@]3(C)C2C1 (stereo partly drawn) came out in this test?
Solution: 0

Exercise: Quick one: CCCC(C)C1(CC)C(=O)N=C(S)NC1=O (stereo not drawn)
Solution: 1

Exercise: Quick one: Cc1occc(=O)c1/C=C/O
Solution: 0

Exercise: Quick one: C=CC(C)(O)CC/C=C(\C)CCC=C(C)C (stereo not drawn)
Solution: 0

Exercise: Quick one: C[n+]1cccc(C(=O)[O-])c1
Solution: 0

Exercise: Quick one: NCCNC(=O)c1ccc(Cl)cc1
Solution: 0

* * *

procedure_details: chemical genetic growth profiling, strain panel (AID 1159580);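 also: tested at 20 µM; growth read once vehicle control cultures reached saturation at 30 °C; 1 = growth at the plate median or of vehicle wells; lower values mean less growth of the strain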
cond: S. cerevisiae deletion strains, growth OD, locus YPL051W, strain arl3, active compounds read low
Screen size: about 5,500 compounds; about 2,000 (36%) were called active. Inconclusive results (about 18%) are left out. The list shows a part of the results.
endpoint_name: normalized growth
# respond with the number and nothing more

# compound, normalized growth
rows = [
    ("O=C(NC(=O)c1c(F)cccc1F)Nc1ccc(Cl)cc1", 1.01),
    ("CCCC(C)C1(CC)C(=O)N=C(S)NC1=O (configuration not stated)", 1),
    ("Nc1ccc(S(=O)(=O)Nc2ccc(Cl)nn2)cc1", 0.98),
]

Exercise: Given the compound COc1ccccc1OCCNCC(O)COc1cccc2[nH]c3ccccc3c12 (configuration not stated) , what is its reported normalized growth?
Solution: 1.01

Exercise: Quick one: COc1c2c(cc3c1OCO3)CCN(C)C2
Solution: 1.01

Exercise: Quick one: Cc1ccc2c(Cl)cc(Cl)c(O)c2n1
Solution: 1.01

Exercise: Quick one: O=C(O)CCCCC1CCSS1 (configuration not stated)
Solution: 0.981

Exercise: Quick one: C=C(CC)C(=O)c1ccc(OCC(=O)O)c(Cl)c1Cl
Solution: 0.992

Exercise: Quick one: CC(C)=CCC[C@](C)(O)C1CC=C(C)CC1 (some centres not stated)
Solution: 0.981

Exercise: Quick one: CCCCC1=NC2(CCCC2)C(=O)N1Cc1ccc(-c2ccccc2-c2nn[nH]n2)cc1
Solution: 0.984

Exercise: Quick one: Nc1ncn([C@@H]2O[C@H](CO)[C@@H](O)[C@H]2O)c(=O)n1
Solution: 0.992

Exercise: Quick one: COC(C)(C)CCC[C@H](C)C/C=C/C(C)=C/C(=O)OC(C)C
Solution: 1

Exercise: Quick one: CC(C)(C)NCC(O)c1ccccc1Cl (configuration not stated)
Solution: 0.999

Exercise: Quick one: CN1C(CC(=O)c2ccccc2)CCCC1CC(O)c1ccccc1 (configuration not stated)
Solution: 0.998

Exercise: Quick one: O=C1O[C@H](C(O)CO)C(O)=C1O (some centres not stated)
Solution: 0.977

Exercise: Quick one: CCCC1O[C@@H]2CC3C4CCC5=CC(=O)C=CC5(C)C4[C@@H](O)CC3(C)[C@]2(C(=O)CO)O1 (some centres not stated)
Solution: 0.998

Exercise: Quick one: NC(=NCCC[C@H](N)C(=O)O)NC(CCC(=O)O)C(=O)O (some centres not stated)
Solution: 0.995
